meta.source: patent US20250188188A1

# TGT: T1, active human C1s purified from human serum (CompTech, Tyler, TX, catalog number A104) (human, UniProt P09871 16-437; P09871 438-688)
# T1 construct: Serum-derived material, biotinylated for the ELISA; also called human active C1s; active C1s
# T1 sequence 1: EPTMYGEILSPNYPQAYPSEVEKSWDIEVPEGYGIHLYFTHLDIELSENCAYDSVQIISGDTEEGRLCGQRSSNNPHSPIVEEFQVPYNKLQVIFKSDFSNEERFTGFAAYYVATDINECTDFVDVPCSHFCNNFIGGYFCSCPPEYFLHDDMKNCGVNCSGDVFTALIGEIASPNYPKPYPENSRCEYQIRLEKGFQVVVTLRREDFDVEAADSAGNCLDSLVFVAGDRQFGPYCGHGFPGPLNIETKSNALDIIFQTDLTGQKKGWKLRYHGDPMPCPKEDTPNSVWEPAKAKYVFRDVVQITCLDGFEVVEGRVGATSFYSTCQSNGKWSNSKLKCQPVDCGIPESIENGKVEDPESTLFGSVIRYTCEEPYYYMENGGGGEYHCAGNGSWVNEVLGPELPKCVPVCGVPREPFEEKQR
# T1 sequence 2: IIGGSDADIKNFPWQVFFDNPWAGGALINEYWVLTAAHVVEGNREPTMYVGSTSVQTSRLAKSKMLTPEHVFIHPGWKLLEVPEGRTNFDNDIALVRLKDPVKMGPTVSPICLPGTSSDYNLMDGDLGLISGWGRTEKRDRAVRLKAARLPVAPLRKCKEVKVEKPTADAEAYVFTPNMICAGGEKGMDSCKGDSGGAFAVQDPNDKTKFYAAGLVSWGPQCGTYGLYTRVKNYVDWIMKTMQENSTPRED
# PROCEDURE TEXT: SPR, antibody captured via anti-human Fc, C1s in solution
RESULT TYPE: kon (M⁻¹ s⁻¹)

[
  {
    "BINDER": "MAB7 (antibody, V domains shown, IgG) VH: QVQLVESGGGLVKPGGSLRLSCAASGFTFSDYYMSWIRQAPGKGLEWVSYISRSGSTKYYADSVKGRFTISRDNAKNSLYLQMNSLRAEDTAVYYCARDETDYAYDNWGQGTLVTVSS VL: DIQMTQSPSSLSASVGDRVTITCQASQDISNYLNWYQQKPGKAPKLLIYDASNLETGVPSRFSGSGSGTDFTFTISSLQPEDIATYYCQQYEDYPLVFGGGTKVEIK",
    "RESULT TYPE": "kon",
    "EXPERIMENTAL VALUE": 184000
  }
]
